B1: VPS39 (parent)
chain: TTLLKCYLHTNVALVAPLLRLENN

# Variants of: B1
# Experimental protocol: protein stability index of a GFP-peptide fusion (GPS, HEK-293T) (PSI 1-6); higher = more stable;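 note: lentivirally expressed fusions sorted by FACS into six bins by GFP to DsRed ratio, PSI derived from sequencing read proportions per bin multiplied by bin number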
# Conditions used: c terminus: a fixed tail appended
Observable: protein stability index
Answers are plain numbers.

| Input sequence | protein stability index |
| --- | --- |
| TTLLKCYLNTNVALVAPLLRLENN | 3.08 |

// for each variant below, give its protein stability index
1. TTLLSCYLHTNVALVAPLLRLENN
2. TTLLKCYLHTNVALVAPLLRLEKN
3. TTLLKCYLHTNVDLVAPLLRLENN

4.1
2.27
1.36

// for each variant below, give its protein stability index
1. TTLLKCYLHTNVALVAPLLRLENK
2. TTLLKCYLHTNVALVGPLLRLENN
3. TTLKKCYLHTNVALVAPLLRLENN
4. TTLLKCYLHTNVALEAPLLRLENN
5. TTLLKCYLHTDVALVAPLLRLENN

[2.08, 2.87, 2.01, 1.35, 4]

// for each variant below, give its protein stability index
1. TTLLKCYLHTNVALVAPLLRLETN
2. TTLLKCYLHTNVALVAPLWRLENN
3. TTLLKCYLHTNVALVAPLLRLEAN
4. TTLLKCYLHTNVALVAPLLTLENN
5. TTLLKCYLHENVALVAPLLRLENN

1: 2.32; 2: 2.61; 3: 2.22; 4: 3.38; 5: 1.46

// for each variant below, give its protein stability index
1. TTLLKCFLHTNVALVAPLLRLENN
2. TTLLKCPLHTNVALVAPLLRLENN
3. TTLLKCYLHTNVALVAPLLRLEND

1. 2.26
2. 1.7
3. 2.7

// for each variant below, give its protein stability index
1. TTLLKCYLHTNVALVRPLLRLENN
2. TTLLKCYLHTNVALVAPLLRLEWN

1: 2.05; 2: 1.88

// for each variant below, give its protein stability index
1. TTLLKCYLHTNVALVAPLTRLENN
2. TTLLKCYLHTNVALVAPLLRLELN
3. TTLLKCYLHGNVALVAPLLRLENN
4. TTLLKCYLHTNVALVAPPLRLENN
5. TTYLKCYLHTNVALVAPLLRLENN

2.11
2.85
3.27
2.27
3.01

// for each variant below, give its protein stability index
1. TTLLKCYLHTNVALVAPLCRLENN
2. TTLLKCYLHTKVALVAPLLRLENN
3. TQLLKCYLHTNVALVAPLLRLENN
4. MTLLKCYLHTNVALVAPLLRLENN
5. TTLFKCYLHTNVALVAPLLRLENN
6. TTLLKCYLHTNVALVALLLRLENN
7. TTLLKCYKHTNVALVAPLLRLENN

1: 1.35; 2: 2.86; 3: 2.1; 4: 2.75; 5: 3.81; 6: 2.13; 7: 1

// for each variant below, give its protein stability index
1. TTLLKCYLHTNVRLVAPLLRLENN
2. TTLLKCYLHTNVALVAPMLRLENN
3. TTLLKCRLHTNVALVAPLLRLENN
4. TTLLKCYMHTNVALVAPLLRLENN
5. TTLLKCYQHTNVALVAPLLRLENN
6. TTLLKCYLHTNVALVHPLLRLENN
7. TTLLKCYLHTNVALVEPLLRLENN
8. TTLLKCYLHTNVALVAPLLGLENN

1.57
3.28
1.76
4.41
2.14
3.78
2.57
2.65
